molecular target: HLA-A*02:06; assay: IEDB peptide-MHC binding, purified MHC/competitive/radioactivity; bounds were set here for any values at or beyond the usual limits of such assays; conditions: source organism: Hepacivirus hominis
pIC50: −log10 of the molar value.
Recorded metric: pIC50

Sequence chain	Assay target	Recorded metric	Observed
QMWKCLIRL	HLA-A*02:06	pIC50	6.66
YLYGIGSAVV	HLA-A*02:06	pIC50	6.55
SMMSFSAAL	HLA-A*02:06	pIC50	6.97
TLLGCWSFVL	HLA-A*02:06	pIC50	6.60
SLMAFTASI	HLA-A*02:06	pIC50	6.13
TLLGCWSFV	HLA-A*02:06	pIC50	6.87
MMMNWSPTT	HLA-A*02:06	pIC50	5.91
VLAGYGAGI	HLA-A*02:06	pIC50	5.60
GLIHACMLV	HLA-A*02:06	pIC50	7.92
LLYFILFFV	HLA-A*02:06	pIC50	6.30
KLLIAILGPL	HLA-A*02:06	pIC50	7.92
YSMAGNWAKV	HLA-A*02:06	pIC50	6.37
LLYFILFFVA	HLA-A*02:06	pIC50	6.00
GLLGCIITSL	HLA-A*02:06	pIC50	6.50
LIVMLLFAGV	HLA-A*02:06	pIC50	6.77

---

target: HLA-A*02:03; assay: IEDB peptide-MHC binding, purified MHC/competitive/radioactivity; bounds were set here for any values at or beyond the usual limits of such assays; details: source organism: Vaccinia virus WR
Recorded metric: log10 IC50 (log10 of the value in nM)

Sequence chain	log10 IC50
YMVTDKTAYI	-0.55
TISWMMKLGI	2.99
TILATLNTL	1.53
PTSETMYLT	3.56
NMDWRSLTQV	1.23
IMEIVSHLRA	2.60
YLLGDSDSVA	1.36
KVYLSTFNM	2.90
CTINVNSLA	3.21
KLPTLFGRGV	1.52
RVNHAKYMVT	3.02
CVSNLDISSV	0.36

---

molecular target: HLA-A*02:01; assay: IEDB peptide-MHC binding, cellular MHC/competitive/fluorescence; bounds were set here for any values at or beyond the usual limits of such assays; conditions: source organism: Influenza A virus
We begin with a simple list: items and their reported IC50.

Sequence chain	Prefix operator	IC50 / µM
QARQMVQAMRA	≥	70
TVDHMAII	≥	70
RAVKLYRKL	=	53.5
RASAGQISV	=	19.6
SAAFEDLRLL	=	42.7
FVETLARSI	=	5.26
AAFEDLRL	≥	70
ALSYSAGA	=	39.3
TVPSERGL	=	52.9
AAFEDLRLL	=	15.5
LAKSVFNSL	=	30.9
GTSGVESAV	=	10.8
NVKDYSIV	≥	70
ATVSADPL	≥	70
LLLVVQALR	=	10.2
ATALANTI	=	21.9
AIRGQYSGFV	=	12.9
PAHKSQLV	≥	70
TATKRIRMA	=	34
RAMAWTVV	=	7.6
GILHLILWIL	=	16.7
TVQIIKLL	=	47.2
TVLGVSIL	=	6.79
ATAILRKA	=	52.9
TLNRNQPAA	=	15.2
AVPNGTLV	≥	70
NVRGSGMRILV	=	20.8
AAMDDFQLI	=	7.96
ATYQRTRA	≥	70
AVATTHSWI	=	32.9
NALLKHRFEII	=	22.7
PLIRHENRMVL	=	28.8
WILWISFAIS	=	21.2

---

Here the recorded log10 IC50 is given for each entry.
biological target: HLA-A*68:02; assay: IEDB peptide-MHC binding, purified MHC/competitive/radioactivity; bounds were set here for any values at or beyond the usual limits of such assays; settings: source organism: Vaccinia virus WR
Recorded metric: log10 IC50 (log10 of the value in nM)

Sequence chain	Assay target	Observed
FQESFYEDIA	HLA-A*68:02	3.46
ITPTIEDDKI	HLA-A*68:02	3.34
VTFINDYANL	HLA-A*68:02	2.72
SIYIAVANCV	HLA-A*68:02	2.49
RTWKVLSIM	HLA-A*68:02	3.62
NVSRVVECL	HLA-A*68:02	1.45
TTNNLLEQL	HLA-A*68:02	1.68
TAFFNTCKPT	HLA-A*68:02	2.73
EVERLMELPV	HLA-A*68:02	3.09
MIHKTYIDV	HLA-A*68:02	2.43
YASLTTIGTI	HLA-A*68:02	2.12
AVLSEYETMV	HLA-A*68:02	3.25
FTDCRTIDA	HLA-A*68:02	3.53
SMYGKAFNHA	HLA-A*68:02	2.21
AAAKTPVIV	HLA-A*68:02	3.31
IVPDIKLDA	HLA-A*68:02	3.46

---

target: HLA-A*68:02; assay: IEDB peptide-MHC binding, cellular MHC/competitive/fluorescence; bounds were set here for any values at or beyond the usual limits of such assays; details: source organism: Hepatitis B virus
# IC50 per entry

Sequence chain	Assay target	IC50 / µM
SLYSILSPFL	HLA-A*68:02	6.67
FLLTRILTI	HLA-A*68:02	22.3
SLYADSPSV	HLA-A*68:02	13.7
ILLLCLIFL	HLA-A*68:02	12.1

---

target: HLA-A*02:01; assay: IEDB peptide-MHC binding, purified MHC/competitive/radioactivity; bounds were set here for any values at or beyond the usual limits of such assays; details: source organism: Vaccinia virus WR
Rule: IC50 below 200 nM gives 1, anything at or above gives 0.

Sequence chain	Label value
LMDSIFVSTM	0
YLDFLLLLLI	1
FLICHNLRA	1
CIVAAVIIMA	0
ALNHLVLSL	1
LTDKKTFII	0
YTDEVYDYL	1
RTLDTAIFT	0
LTIMGVIFLI	1
LTNEIYASII	0
RALKAYFTA	1
YAVTKTDGI	0
KLLKMVTSV	1
LMYDIINSV	1
LITLTNVVNI	0
NAPIKTFML	0
IVSKLTFLDV	1
YAYGWIPET	1
IIVALTIMGV	0
IMYTYFSNTI	1
ILGMLFSDRV	1
FAAELTIGV	1
NVSGVPHSV	0
KLITFLFVI	1
SASVFYRGA	0
FMEEEIKAEM	1
NLLLWPLYV	1
KVHGLDVKNV	0
FVYVSVMNFI	0
NQLYLTVSFI	0
CIVQSVLRDI	0
VILSPPINA	0
DMMSLNLTIV	0
IAVITETIPI	1
QLVDAIDNI	1
TVIHLEWLL	1
TLAPFNFLV	1
IMAFILGII	1
LIAGIILLIL	0
TLYDFDYYII	1
KLYLVDYGLV	1
GMYYPTNDI	0
KIILFQNNDI	0
RAFIYSIMET	0
VIFLISVIVL	0
AVITETIPI	0
GVSKKNIWL	0
YIILFILFFA	0
AVANCVRNL	0
FTFSNVCESV	1
WLIGFDFDV	1
LQQNNSFII	0
ELSRLRYNL	0
NTITTFIPI	0
KTMAVTYEL	1
RLYDYFTRV	1
KMCTVSDYI	1
LALTDVEKRI	0
KMIPLLFIL	1
QVLQQNNSFI	0
SLKRFTHTTA	0
KINPTLDNI	0
IILAISALL	1
TIIALLFAL	1
YASLTTIGT	0
IMEIVSHLRA	0
TILATLNTL	1
IVEVPEDGI	0
LISLTNEIYA	0
SVVVPIKFIA	0
FMLPKQDIV	1
ALMTLDDLAI	1
PASISSVLT	0
MLDDFSAGA	1
SIDHCSSFI	0
TLFLILCYFI	1
QLVDAIDNIV	1
SINNQLMYDI	0
GTGYYKYFI	0
ILMDSIFVST	1

---

Entries and their pIC50
biological target: HLA-A*02:06; experiment: IEDB peptide-MHC binding, purified MHC/competitive/radioactivity; bounds were set here for any values at or beyond the usual limits of such assays; details: source organism: Vaccinia virus WR
pIC50: −log10 of the molar value.
Recorded metric: pIC50

Sequence chain	Observed
LVKDESIQL	5.85
GLYIPGTSV	5.76
YQNEVTPEYI	8.59
ETQSGALEVL	5.80
NTTTFITVLT	6.22
DLNIFMTLV	5.66
FAISYCRAFI	7.46
LQISRVNDL	6.64
MTSTRTIILV	6.66
QLVKDESIQL	5.74
LLNVQTLISL	7.01
QQFANVISKI	6.06
VLIAGIILLI	5.99
ILGIIITVGM	5.33
ELAYYNSCML	5.45

---

molecular target: HLA-A*02:06; assay: IEDB peptide-MHC binding, purified MHC/competitive/radioactivity; bounds were set here for any values at or beyond the usual limits of such assays; conditions: source organism: SARS-CoV1
pIC50: −log10 of the molar value.
Rule: class 1 for pIC50 not less than 7, class 0 for anything less.

Sequence chain	Assay target	Label value
TLLCVLAAL	HLA-A*02:06	class 1
LLFNKVTLA	HLA-A*02:06	class 1
LIANIFTPLV	HLA-A*02:06	class 1
FLITGVFDI	HLA-A*02:06	class 1
FLNRFTTTL	HLA-A*02:06	class 1
MLIIFWFSL	HLA-A*02:06	class 0
ALVSGTATA	HLA-A*02:06	class 0
AIYVFCISL	HLA-A*02:06	class 1
IVDTVSALV	HLA-A*02:06	class 1
CLDAGINYV	HLA-A*02:06	class 1
FICNLLLLFV	HLA-A*02:06	class 1
VVFLHVTYV	HLA-A*02:06	class 1
TLNEDLLEI	HLA-A*02:06	class 1
YALCTLLHL	HLA-A*02:06	class 1
RMVSLVTSFL	HLA-A*02:06	class 1
SQMETDFLEL	HLA-A*02:06	class 1
KLLIVLTCI	HLA-A*02:06	class 0
LLFQLCTFT	HLA-A*02:06	class 1
FMRFFTLGSI	HLA-A*02:06	class 0
WLVIGVAFL	HLA-A*02:06	class 0
IAMWLLLLSI	HLA-A*02:06	class 0
FLTNKLLLFA	HLA-A*02:06	class 1
YMLFTKFFYL	HLA-A*02:06	class 1
AMWLLLLSI	HLA-A*02:06	class 0
MQVFFGYFA	HLA-A*02:06	class 1
AIMTRCLAV	HLA-A*02:06	class 1
LLLEWLAEV	HLA-A*02:06	class 1
WLLWPVTLA	HLA-A*02:06	class 1
VVHGYFTEV	HLA-A*02:06	class 1
CVMYASALV	HLA-A*02:06	class 1
VMCGGSLYV	HLA-A*02:06	class 1
FQFICNLLLL	HLA-A*02:06	class 1
SLVKPTVYV	HLA-A*02:06	class 0
LVFLILCFT	HLA-A*02:06	class 0
LLLWISVKV	HLA-A*02:06	class 1
SLCSCICTV	HLA-A*02:06	class 1
QMLSVVGFLV	HLA-A*02:06	class 1
LLLEWLAEVV	HLA-A*02:06	class 1
YQCGHYTHI	HLA-A*02:06	class 1
ALSGVFCGV	HLA-A*02:06	class 1
ALLFLMSFTI	HLA-A*02:06	class 1
YVVVHGYFT	HLA-A*02:06	class 0
LMSFTILCLV	HLA-A*02:06	class 1
MVMCGGSLYV	HLA-A*02:06	class 1
YLSSVLLAL	HLA-A*02:06	class 1
TMADLVYAL	HLA-A*02:06	class 1
VLWAHGFEL	HLA-A*02:06	class 1
AQFLYLYAL	HLA-A*02:06	class 1
FTYASALWEI	HLA-A*02:06	class 1
IMQVFFGYFA	HLA-A*02:06	class 1
SLPSYAAYA	HLA-A*02:06	class 1
IIFWFSLEI	HLA-A*02:06	class 1
ALIARCWYL	HLA-A*02:06	class 1
FVFNGTSWFI	HLA-A*02:06	class 1
FLAHLQWFA	HLA-A*02:06	class 1
FLTSLLILV	HLA-A*02:06	class 1
KLIEYSDFA	HLA-A*02:06	class 1
FLLFLVLIML	HLA-A*02:06	class 0
IVNSVLLFL	HLA-A*02:06	class 1
LMSFTILCL	HLA-A*02:06	class 1
LMWFIISIV	HLA-A*02:06	class 1
YASALVLLI	HLA-A*02:06	class 1
MLLTFLTSL	HLA-A*02:06	class 1
LLVTLAILTA	HLA-A*02:06	class 1
YLVQQESSFV	HLA-A*02:06	class 0
AQMGTLLIA	HLA-A*02:06	class 1
TLLLWISVKV	HLA-A*02:06	class 0
